The measurements presented in this section are drawn from patent US9796733B2.

- Tested Target: sGC α1/β1 heterodimer (Homo sapiens, UniProt Q02108+Q02153)
- Construct: expressed in transfected cells; host or cells: CHO-K1 (clone #7, CHO-K1/sGC)
- Sequence (Q02108 whole entry): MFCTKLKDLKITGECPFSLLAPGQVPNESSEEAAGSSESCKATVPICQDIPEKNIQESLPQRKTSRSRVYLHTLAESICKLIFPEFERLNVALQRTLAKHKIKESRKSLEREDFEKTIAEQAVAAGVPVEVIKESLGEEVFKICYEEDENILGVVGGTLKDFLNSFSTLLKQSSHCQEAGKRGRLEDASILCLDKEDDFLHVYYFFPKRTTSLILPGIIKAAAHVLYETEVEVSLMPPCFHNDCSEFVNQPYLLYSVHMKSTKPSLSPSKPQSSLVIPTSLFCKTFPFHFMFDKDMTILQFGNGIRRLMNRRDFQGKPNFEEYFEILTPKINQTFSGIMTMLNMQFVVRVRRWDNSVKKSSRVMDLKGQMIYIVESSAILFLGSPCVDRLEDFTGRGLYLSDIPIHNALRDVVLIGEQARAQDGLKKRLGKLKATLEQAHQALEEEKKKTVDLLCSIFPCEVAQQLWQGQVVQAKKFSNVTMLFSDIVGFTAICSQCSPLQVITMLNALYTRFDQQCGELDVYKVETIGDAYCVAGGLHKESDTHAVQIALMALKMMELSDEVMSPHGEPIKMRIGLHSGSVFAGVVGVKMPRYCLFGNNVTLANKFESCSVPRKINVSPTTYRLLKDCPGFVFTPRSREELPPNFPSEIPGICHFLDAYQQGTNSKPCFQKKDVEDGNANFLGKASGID
- Sequence (Q02153 whole entry): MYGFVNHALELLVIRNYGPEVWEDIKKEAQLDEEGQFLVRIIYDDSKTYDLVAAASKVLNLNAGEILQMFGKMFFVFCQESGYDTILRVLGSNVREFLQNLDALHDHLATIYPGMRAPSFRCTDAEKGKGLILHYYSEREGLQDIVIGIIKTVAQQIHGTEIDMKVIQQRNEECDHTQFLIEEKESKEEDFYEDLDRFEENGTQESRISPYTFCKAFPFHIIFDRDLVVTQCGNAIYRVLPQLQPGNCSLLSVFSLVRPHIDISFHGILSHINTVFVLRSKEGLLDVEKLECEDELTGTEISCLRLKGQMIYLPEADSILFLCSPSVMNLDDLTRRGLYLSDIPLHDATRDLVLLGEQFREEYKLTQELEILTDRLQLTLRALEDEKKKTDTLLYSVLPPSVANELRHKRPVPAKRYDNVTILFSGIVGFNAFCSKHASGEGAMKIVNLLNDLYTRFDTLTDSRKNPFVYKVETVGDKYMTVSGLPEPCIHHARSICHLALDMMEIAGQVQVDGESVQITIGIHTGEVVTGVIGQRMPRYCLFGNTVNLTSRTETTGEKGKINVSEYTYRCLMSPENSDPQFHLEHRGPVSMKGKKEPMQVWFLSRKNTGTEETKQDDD
- Measurement Notes: Cell-based sGC functional assay (CASA assay): cGMP generation in CHO-K1/sGC cells, HTRF detection
- Test Context: CHO-K1, percent activation relative to standard Compound A in CHO-K1/sGC cells; read-out: % Act.
- Description: Biological Assay 1: Cell-Based sGC Functional Assay (CASA Assay) sGC is a heme-containing enzyme that converts GTP to secondary messenger cGMP. […] A CHO-K1 cell line stably expressing the sGC α1/β1 heterodimer was generated using a standard transfection protocol. […] The level of intracellular cGMP was determined using an HTRF-based assay kit (CisBio, 62GM2PEC), which detects the displacement of a fluorescence labeled cGMP from its specific antibody. […]
Property Measured: Emax (%)

[
  {
    "Molecule": "Nc1nc(-c2cn3ccnc3cn2)nc2c1C(c1ccc(Cl)c(F)c1)(C1CC1)C(=O)N2 (stereo not drawn) [Example 137B]",
    "Measured Number": 108
  },
  {
    "Molecule": "CC1(c2ccc(F)cc2)C(=O)Nc2nc(-c3cn4ccnc4c(CC4CCC4)n3)nc(N)c21 (stereo not drawn) [Example 114A]",
    "Measured Number": 94
  },
  {
    "Molecule": "CCCCc1nc(-c2nc(N)c3c(n2)NC(=O)C3(C)c2ccc(Cl)cn2)cn2cc(C)nc12 (stereo not drawn) [Example 168A]",
    "Measured Number": 97
  },
  {
    "Molecule": "CC1(C)CN(c2nc(-c3cn4ccnc4c(CCC(F)(F)C(F)(F)F)n3)nc3c2C(C)(c2ccc(F)cc2)C(=O)N3)C1 (stereo not drawn) [Example 302A]",
    "Measured Number": 105
  },
  {
    "Molecule": "Nc1nc(-c2cn3cc(C(F)(F)F)nc3c(Cc3cccc(F)c3)n2)nc2c1C(C(=O)NC1CC1)(C1CC1)C(=O)N2 (stereo not drawn) [Example 44B]",
    "Measured Number": 88
  },
  {
    "Molecule": "CCCc1nc(-c2nc(N)c3c(n2)NC(=O)C3(C)c2ccc(C(F)(F)F)cn2)cn2ccnc12 (stereo not drawn) [Example 132B]",
    "Measured Number": 99
  }
]
